For each of the binders below, state its Fluorescence intensity.
- target.of.assay: T1, recombinant human interleukin-18 (human, UniProt Q14116 37-193)
- T1 construct: Commercially available recombinant human IL-18; also called IL-18; free IL-18
- T1 sequence (looked up): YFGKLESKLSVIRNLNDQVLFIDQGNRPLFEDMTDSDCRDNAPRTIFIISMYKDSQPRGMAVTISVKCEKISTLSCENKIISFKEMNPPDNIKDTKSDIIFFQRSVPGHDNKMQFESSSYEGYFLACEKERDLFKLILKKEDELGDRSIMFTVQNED
- protocol.summary: Luminex, antibody on IL-18 beads
- Protocol: Following immunization, B cells were isolated from spleen and hybridized following standard hybridoma technology. […] The screening was performed in 3 sequential and selective steps: [1253] First step. […] [1254] Second step. […] For this, monoclonal antibodies were bound to Luminex beads carrying IL-18. […] [1255] Third step.
State just the number; it will be interpreted in fluorescence intensity.

Qu. Which value of Fluorescence intensity has been reported for Antibody 109A6 (antibody, V domains shown, Mouse hybridoma monoclonal antibody) VH: EVQLQQSGAELVKPGASVKLSCTASGFKIKDTYIHWVIQRPAQGLEWIGRIDPANGNTIYGSKFQGKATLTADTSSNTAYIHLSSLTSGDSAVYYCAGYVWFAYWGQGTLVTVSA VL: DVVMTQVPLSLPVSLGDQASISCRSSQRLVHSNGNTYLHWFLQKPGQSPKLLIYTVSNRFSGVPDRFSGSGSGTDFTLKISRVEAEDLGVYFCSQSTLVPWTFGGGTKLEIK in the records?
Ans. 25800

Qu. Antibody 108F8 (antibody, V domains shown, Mouse hybridoma monoclonal antibody) VH: QIQLVQSGPDSKKPGETVKLSCRASGYTFTNYGMNWVKQAPGKGLKWMGWINTYSGVPTYADDFKGQFAFSLETSAATAFLQINNLKDEDTATYFCAREGYSTTRSMDYWGQGTSVTVSS VL: DIVMSQSPSSLAVSAGEKVTMSCKSSQSLLDSRTRKNYLVWYQQKPGQSPKLLIYWASTRGSGVPDRFTGSGSGTDFTLTISSVQAEDLAVYYCKQSYNLRTFGGGTKLEIK ?
Ans. 25100

Qu. Antibody 107C6 (antibody, V domains shown, Mouse hybridoma monoclonal antibody; also called clone #107C6) VH: QIQLVQSGPELKKPGETVKLSCRASGYTFTNYGMNWVKQAPGKGLKWMGWINTYSGVPTYADDFKGQFAFSLETSAATAFLQINNLKDEDTATYFCAREGYSTTRSMDYWGQGTSVTVSS VL: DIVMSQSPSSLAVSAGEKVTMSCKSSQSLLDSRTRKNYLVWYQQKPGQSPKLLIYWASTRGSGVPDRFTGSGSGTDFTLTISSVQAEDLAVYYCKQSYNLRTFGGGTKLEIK ?
Ans. 26200

Qu. Antibody 132H4 (antibody, V domains shown, Mouse hybridoma monoclonal antibody) VH: EVKLVESGGGLVKPGGSLKLSCAASGFTFSNYAMSWVRQNPAKRLEWVATISSGGANIYYPDSVKGRFIISRDNARNTLYLQMSSLRSEDTAMYYCARGDYFNHFWFAYWGQGTLVTVSA VL: DVLMTQTPLSLPVSLGDQASISCRSSQSIVHSNGNTYLEWYLQKPGQSPKFLIYKVSNRFSGVPDRFSGSGSGTDFTLKINRVEAEDLGIYYCFQGSHVPWTFGGGTKLEIK ?
Ans. 23800
